biological target: recombinant human ASK1 protein (Homo sapiens (Human), UniProt Q99683); assay: ASK1 kinase activity inhibition assay (radiometric 33P incorporation into MBP); format: biochemical; details: Table 3; 20 μM MBP, 10 μM 33P-ATP
Sequence (Q99683 whole entry): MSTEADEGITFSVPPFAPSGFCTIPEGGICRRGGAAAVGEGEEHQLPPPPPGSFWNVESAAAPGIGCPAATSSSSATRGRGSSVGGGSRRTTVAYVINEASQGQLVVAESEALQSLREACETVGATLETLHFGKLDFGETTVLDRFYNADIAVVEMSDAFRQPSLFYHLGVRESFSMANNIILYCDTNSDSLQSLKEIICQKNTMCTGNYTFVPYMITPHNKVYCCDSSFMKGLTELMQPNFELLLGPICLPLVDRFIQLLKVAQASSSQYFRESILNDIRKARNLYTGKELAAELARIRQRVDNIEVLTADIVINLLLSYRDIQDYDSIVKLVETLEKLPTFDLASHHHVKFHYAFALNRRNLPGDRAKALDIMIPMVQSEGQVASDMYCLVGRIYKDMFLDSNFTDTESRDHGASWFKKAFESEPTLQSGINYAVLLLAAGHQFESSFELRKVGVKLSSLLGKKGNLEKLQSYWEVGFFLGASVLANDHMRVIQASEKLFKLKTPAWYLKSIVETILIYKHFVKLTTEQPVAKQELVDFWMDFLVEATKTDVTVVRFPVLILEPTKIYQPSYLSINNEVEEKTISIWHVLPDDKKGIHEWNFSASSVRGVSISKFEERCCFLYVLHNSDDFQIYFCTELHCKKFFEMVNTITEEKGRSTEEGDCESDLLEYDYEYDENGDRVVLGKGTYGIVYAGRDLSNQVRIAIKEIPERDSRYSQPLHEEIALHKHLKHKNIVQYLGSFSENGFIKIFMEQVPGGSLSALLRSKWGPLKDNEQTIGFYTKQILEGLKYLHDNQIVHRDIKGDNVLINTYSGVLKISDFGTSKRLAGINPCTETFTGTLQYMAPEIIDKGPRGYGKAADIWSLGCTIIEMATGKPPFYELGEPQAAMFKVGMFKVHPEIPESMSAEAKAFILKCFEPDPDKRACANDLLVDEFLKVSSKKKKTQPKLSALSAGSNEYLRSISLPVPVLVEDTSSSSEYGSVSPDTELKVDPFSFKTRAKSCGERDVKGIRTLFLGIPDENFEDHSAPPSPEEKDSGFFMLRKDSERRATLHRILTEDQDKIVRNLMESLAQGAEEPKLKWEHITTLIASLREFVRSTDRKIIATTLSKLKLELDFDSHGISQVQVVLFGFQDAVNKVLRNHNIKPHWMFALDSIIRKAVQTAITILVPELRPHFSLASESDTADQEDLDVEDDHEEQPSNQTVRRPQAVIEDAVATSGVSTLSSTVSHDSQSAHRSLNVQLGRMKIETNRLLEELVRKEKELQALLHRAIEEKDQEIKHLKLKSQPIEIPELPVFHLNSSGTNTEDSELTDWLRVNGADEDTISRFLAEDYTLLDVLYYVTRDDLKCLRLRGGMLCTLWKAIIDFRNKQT
pIC50: −log10 of the molar value.
endpoint: pIC50

compound | endpoint | quantitativeReadout
CC(C)n1cnnc1-c1cccc(N2Cc3ccc(-c4cc(-c5nn[nH]n5)ccc4F)cc3C2=O)n1 [Compound 111] | pIC50 | 8.19
O=C(O)c1ccc(-c2ccc3c(c2)C(=O)N(c2cccc(-c4nncn4C4CC4)n2)C3)cc1 [Compound 71] | pIC50 | 8.37
CC(C)n1cnnc1-c1cccc(N2Cc3ccc(-c4ncc5ccc(C(=O)O)cc5n4)cc3C2=O)n1 [Compound 125] | pIC50 | 8.15
CC(C)n1cnnc1-c1cccc(N2Cc3ccc(N4CCC(CC(=O)O)CC4)cc3C2=O)n1 [Compound 129] | pIC50 | 8.18

a. CC(C)n1cnnc1-c1cccc(N2Cc3ccc(-c4ccc(C(=O)O)cc4F)cc3C2=O)n1 [Compound 57]
b. CC(C)n1cnnc1-c1cccc(N2Cc3ccc(-c4c(F)cccc4C(=O)O)cc3C2=O)n1 [Compound 70]
c. CC(C)n1cnnc1-c1cccc(N2Cc3ccc(-c4ccccc4C(=O)O)cc3C2=O)n1 [Compound 56]
d. COc1ccc(C(=O)O)cc1-c1ccc2c(c1)C(=O)N(c1cccc(-c3nncn3C(C)C)n1)C2 [Compound 8]
Reorder: pIC50, max to min. Please list the labels in the order you were asked to rank them.
a, d, c, b
(a: 8.24, d: 7.97, c: 7.37, b: 6.80)
